Reported pIC50 values for the following compounds.
Study target: CK1ε (Homo sapiens)
Sequence (P49674 whole entry): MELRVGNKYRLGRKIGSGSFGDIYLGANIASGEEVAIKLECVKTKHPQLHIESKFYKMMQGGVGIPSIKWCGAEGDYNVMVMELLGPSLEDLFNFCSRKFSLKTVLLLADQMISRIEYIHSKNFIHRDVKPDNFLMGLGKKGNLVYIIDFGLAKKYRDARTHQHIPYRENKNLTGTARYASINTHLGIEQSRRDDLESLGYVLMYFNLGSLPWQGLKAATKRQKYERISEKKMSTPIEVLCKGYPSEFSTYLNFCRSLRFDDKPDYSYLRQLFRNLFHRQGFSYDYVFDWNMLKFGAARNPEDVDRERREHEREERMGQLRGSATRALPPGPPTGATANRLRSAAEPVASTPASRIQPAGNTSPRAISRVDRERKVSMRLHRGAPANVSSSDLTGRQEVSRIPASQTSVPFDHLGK
Assay info: CK1ε kinase assay (Caliper LabChip electrophoretic separation of fluoresceinated peptide substrate and product)
Format: biochemical
Experimental setup: 200 pM CK1ε, 50 μM ATP, 1.5 μM peptide, 22 hours at room temperature; read-out: CK1ε IC50 range
pIC50: −log10 of the molar value.

>>> test_result("CC1(CNC(=O)N2CCn3nc(-c4cccc(Cl)c4)c(C(N)=O)c3C2)CC(F)(F)C1 [Compound 230]")
"8.00 to 11.00"
>>> test_result("C[C@@]12C[C@H]3C[C@@](Cl)(C1)C[C@](NC(=O)N1CCn4nc(-c5ccc(Cl)c(Cl)c5)c(C(N)=O)c4C1)(C3)C2 [Compound A93]")
"8.00 to 11.00"
>>> test_result("CC(C)NC(=O)C(C)(C)NC(=O)N1CCn2nc(-c3ccc(F)c(Cl)c3)c(C(N)=O)c2C1 [Compound 216]")
"5.70 to 7.00"
>>> test_result("CC(=O)N1CCC(NC(=O)N2CCn3nc(-c4cccc(F)c4)c(C(N)=O)c3C2)CC1 [Compound 97]")
"7.00 to 8.00"
>>> test_result("C[C@@H]1CN(C(=O)NC2CC(F)(F)C2)Cc2c(C(N)=O)c(-c3ccc(Cl)c(Cl)c3)nn21 [Compound A35]")
"8.00 to 11.00"
>>> test_result("CC(C)NC(=O)N1CCn2nc(-c3ccc(F)cc3)c(C(N)=O)c2C1 [Compound 2]")
"7.00 to 8.00"
>>> test_result("CC1(NC(=O)N2CCn3nc(-c4ccc(F)c(Cl)c4)c(C(N)=O)c3C2)CC(C(F)F)C1 (single isomer, unassigned) [Compound 258]")
"8.00 to 11.00"
>>> test_result("CC(C)(C)NC(=O)N1Cc2c(C(N)=O)c(-c3ccc(Cl)c(Cl)c3)nn2C(C(F)F)C1 (stereo not drawn) [Compound A32]")
"8.00 to 11.00"
>>> test_result("NC(=O)c1c(-c2cccc(F)c2)nn2c1CN(C(=O)Nc1cccnc1)CC2 [Compound 68]")
"7.00 to 8.00"
>>> test_result("NC(=O)c1c(-c2cccc(F)c2)nn2c1CN(C(=O)Nc1ccc(Cl)cc1C(F)(F)F)CC2 [Compound 57]")
"5.70 to 7.00"

From here, focus on the item given below.
For NC(=O)c1c(-c2cccc(F)c2)nn2c1CN(C(=O)Nc1cccc(F)c1F)CC2 [Compound 28] the compound record lists pIC50 as 7.00 to 8.00
